The following compounds are shown together with reported MBC values.
system: M. flavus; test: Antibacterial microdilution (MIC/MBC); format: cell-based; conditions: Micrococcus flavus; M.f. (M. flavus)

- COMPOUND: "COC(=O)c1[nH]c2ccccc2c1/C=C1\\SC(=S)N(Cc2ccco2)C1=O [Compound 7]"
  OUTPUT UNIT: "µg/mL"
  MBC: 60
- COMPOUND: "COC(=O)c1[nH]c2ccc(F)cc2c1/C=C1\\SC(=S)N(C)C1=O [Compound 15]"
  OUTPUT UNIT: "µg/mL"
  MBC: 60
- COMPOUND: "COC(=O)c1[nH]c2cc(OC)ccc2c1/C=C1\\SC(=S)N(c2cccc(F)c2)C1=O [Compound 13]"
  OUTPUT UNIT: "µg/mL"
  MBC: 60
- COMPOUND: "COC(=O)c1[nH]c2ccccc2c1/C=C1\\SC(=S)N(CCCCCC(=O)O)C1=O [Compound 1]"
  OUTPUT UNIT: "µg/mL"
  MBC: 30
